# Test system: L. donovani amastigotes in THP-1 macrophages, DAPI imaging, 72 h
# assay: L. donovani intracellular amastigote growth inhibitors, imaging, THP-1 host macrophages, single concentration (AID 977614);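 note: signal is the parasite per host cell ratio from DAPI stained kinetoplasts and nuclei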
Activity calls are given as the source filed them.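 Rule for the calls: active = parasite count per well reduced by over 3 SD from the mean, with host cell number above 80% of untreated; inactive = the rest.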
# maps each entry to its AC50
property_measured: AC50

substance_smiles: COc1ccc(C(=O)N2C[C@H]3[C@@H](c4ccccc42)[C@@H](CO)N3C(=O)Cc2ccccn2)cc1
measured_value: > 10 µM (inactive)
--
substance_smiles: CCC(=O)N1C[C@H]2[C@@H](c3ccccc31)[C@@H](CO)N2C(=O)CC1CC1
measured_value: > 10 µM (inactive)
--
substance_smiles: C[C@H](CO)N1C[C@H](C)[C@H](CN(C)C(=O)c2cc(-c3ccccc3)on2)OCc2cnnn2CCCC1=O
measured_value: > 10 µM (inactive)
--
substance_smiles: CCC(=O)N1C[C@@H]2[C@H](c3ccccc31)[C@@H](CO)N2C(=O)CC1CC1
measured_value: > 10 µM (inactive)
--
substance_smiles: COCC(=O)N(C)C[C@@H]1[C@@H](c2ccccc2)[C@H](CO)N1C(=O)Cc1ccncc1
measured_value: > 10 µM (inactive)
--
substance_smiles: C/C=C/c1ccc([C@H]2[C@@H](CN(C)C(C)=O)N(C(=O)NC(C)C)[C@H]2CO)cc1
measured_value: > 10 µM (inactive)
--
substance_smiles: CCN(C[C@H]1[C@H](c2ccc(-c3cccnc3)cc2)[C@@H](CO)N1C(C)=O)C(C)=O
measured_value: > 10 µM (inactive)
--
substance_smiles: O=C(NC[C@@H]1N[C@@H](CO)[C@H]1c1ccccc1)c1ccccc1F
measured_value: > 10 µM (inactive)
--
substance_smiles: C[C@H]1CN([C@@H](C)CO)C(=O)CCCn2nncc2CO[C@H]1CN(C)Cc1ccc2cccnc2c1
measured_value: > 10 µM (inactive)
--
substance_smiles: CN(C[C@H]1[C@@H](c2ccccc2)[C@@H](CO)N1Cc1ccccn1)S(C)(=O)=O
measured_value: > 10 µM (inactive)
--
substance_smiles: CN1[C@H](CO)[C@H]2c3ccccc3NC[C@H]21
measured_value: > 10 µM (inactive)
--
substance_smiles: O=C(C1CCCCC1)N1[C@@H]2CN(S(=O)(=O)c3ccccc3)c3ccccc3[C@@H]2[C@@H]1CO
measured_value: > 10 µM (inactive)
--
substance_smiles: CCC(=O)N1[C@H](CO)[C@H](c2ccccc2)[C@@H]1CN(CC)C(=O)c1cccc(F)c1
measured_value: > 10 µM (inactive)
--
substance_smiles: Cc1noc(C)c1S(=O)(=O)N(C)C[C@@H]1OCc2cn(nn2)CCCC(=O)N([C@H](C)CO)C[C@@H]1C
measured_value: > 10 µM (inactive)
--
substance_smiles: CCN(C[C@H]1N[C@H](CO)[C@@H]1c1ccccc1)C(=O)c1ccncc1
measured_value: > 10 µM (inactive)
--
substance_smiles: CN1C[C@@H]2[C@H](c3ccccc31)[C@H](CO)N2S(=O)(=O)c1ccccc1
measured_value: > 10 µM (inactive)
--
substance_smiles: C[C@@H]1CN([C@@H](C)CO)C(=O)CCCn2nncc2CO[C@@H]1CN(C)C(=O)Nc1ccnc(N2CCOCC2)c1
measured_value: > 10 µM (inactive)
--
substance_smiles: C[C@H](CO)N1C[C@H](C)[C@@H](CN(C)C(=O)Nc2cccc(C(F)(F)F)c2)OCc2cn(nn2)CCCC1=O
measured_value: > 10 µM (inactive)

###

# System: L. donovani amastigotes in THP-1 macrophages, DAPI imaging, 72 h
# assay: L. donovani intracellular amastigote growth inhibitors, imaging, THP-1 host macrophages, single concentration (AID 977614);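 note: signal is the parasite per host cell ratio from DAPI stained kinetoplasts and nuclei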
Activity calls are given as the source filed them.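 Rule for the calls: active = parasite count per well reduced by over 3 SD from the mean, with host cell number above 80% of untreated; inactive = the rest.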
property_measured: AC50

substance_smiles: CN(C[C@H]1[C@@H](c2ccccc2)[C@H](CO)N1Cc1ccccn1)S(C)(=O)=O
measured_value: > 10 µM (inactive)
//
substance_smiles: C[C@H](CO)N1C[C@H](C)[C@@H](CN(C)C(=O)Nc2cccc3ccccc23)OCc2cn(nn2)CCCC1=O
measured_value: > 10 µM (inactive)
//
substance_smiles: Cc1cccc(S(=O)(=O)N2C[C@H]3[C@@H](c4ccccc42)[C@H](CO)N3C(=O)c2ccccc2)c1
measured_value: > 10 µM (inactive)
//
substance_smiles: C[C@H](CO)N1C[C@H](C)[C@H](CN(C)C(=O)Nc2ccc3c(c2)OCO3)OCc2cn(nn2)CCCC1=O
measured_value: > 10 µM (inactive)
//
substance_smiles: CC(=O)N1C[C@@H]2[C@H](c3ccccc31)[C@H](CO)N2Cc1ccc(Cl)cc1
measured_value: > 10 µM (inactive)
//
substance_smiles: C[C@H](CO)N1C[C@H](C)[C@H](CN(C)Cc2ccc3c(c2)OCCN3C)OCc2cnnn2CCCC1=O
measured_value: > 10 µM (inactive)
//
substance_smiles: CC(=O)N1[C@H](CNC(=O)C2CC2)[C@@H](c2ccc(-c3ccccc3)cc2)[C@@H]1CO
measured_value: > 10 µM (inactive)
//
substance_smiles: O=C(NC[C@@H]1[C@@H](c2ccccc2)[C@H](CO)N1C(=O)C1CCC1)NC1CCCC1
measured_value: > 10 µM (inactive)

###

# Test system: L. donovani amastigotes in THP-1 macrophages, DAPI imaging, 72 h
# assay: L. donovani intracellular amastigote growth inhibitors, imaging, THP-1 host macrophages, single concentration (AID 977614);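 note: signal is the parasite per host cell ratio from DAPI stained kinetoplasts and nuclei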
Activity calls are given as the source filed them.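 The calls were made as follows: active = parasite count per well reduced by over 3 SD from the mean, with host cell number above 80% of untreated; inactive = the rest.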

substance_smiles: Cc1cccc(S(=O)(=O)N2C[C@@H]3[C@H](c4ccccc42)[C@H](CO)N3CC2CCCC2)c1
AC50: > 10 µM (inactive)
//
substance_smiles: Cc1cccc(S(=O)(=O)N2C[C@@H]3[C@H](c4ccccc42)[C@H](CO)N3Cc2ccc3c(c2)OCO3)c1
AC50: > 10 µM (inactive)
//
substance_smiles: CCNC[C@@H]1[C@H](c2ccccc2)[C@@H](CO)N1C(=O)Cc1ccccn1
AC50: > 10 µM (inactive)
//
substance_smiles: O=C(NC[C@H]1N[C@H](CO)[C@@H]1c1ccc(-c2cncnc2)cc1)C1CCCCC1
AC50: > 10 µM (inactive)
//
substance_smiles: C[C@@H]1CN([C@H](C)CO)C(=O)CCCn2nncc2CO[C@@H]1CN(C)S(=O)(=O)c1ccccc1C#N
AC50: > 10 µM (inactive)
//
substance_smiles: CCC(=O)N1C[C@H]2[C@@H](c3ccccc31)[C@@H](CO)N2Cc1ccc(F)cc1
AC50: > 10 µM (inactive)
//
substance_smiles: CN(C[C@H]1[C@H](c2ccccc2)[C@@H](CO)N1Cc1ccccn1)S(C)(=O)=O
AC50: > 10 µM (inactive)
//
substance_smiles: CN(C[C@H]1N[C@@H](CO)[C@@H]1c1ccccc1)C(=O)c1ccccn1
AC50: > 10 µM (inactive)
//
substance_smiles: C[C@@H]1CN([C@H](C)CO)C(=O)CCCn2cc(nn2)CO[C@H]1CN(C)C(=O)NC1CCCCC1
AC50: > 10 µM (inactive)

###

# Test system: L. donovani amastigotes in THP-1 macrophages, DAPI imaging, 72 h
# assay: L. donovani intracellular amastigote growth inhibitors, imaging, THP-1 host macrophages, single concentration (AID 977614);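 note: signal is the parasite per host cell ratio from DAPI stained kinetoplasts and nuclei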
Calls of active or inactive are those of the source.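 The calls were made as follows: active = parasite count per well reduced by over 3 SD from the mean, with host cell number above 80% of untreated; inactive = the rest.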
Catalogue of compounds with associated AC50
property_measured: AC50

substance_smiles: C[C@H](CO)N1C[C@H](C)[C@@H](CN(C)C(=O)Nc2ccccc2C(F)(F)F)OCc2cnnn2CCCC1=O
study_target: L. donovani amastigotes in THP-1 macrophages, DAPI imaging, 72 h
property_measured: AC50
measured_value: > 10 µM (inactive)
--
substance_smiles: CC(C)NC(=O)N1[C@H](CNC(=O)CN(C)C)[C@H](c2ccccc2)[C@@H]1CO
study_target: L. donovani amastigotes in THP-1 macrophages, DAPI imaging, 72 h
property_measured: AC50
measured_value: > 10 µM (inactive)
--
substance_smiles: COCCNC[C@@H]1[C@@H](c2ccccc2)[C@@H](CO)N1c1nc(C)c(C)s1
study_target: L. donovani amastigotes in THP-1 macrophages, DAPI imaging, 72 h
property_measured: AC50
measured_value: > 10 µM (inactive)
--
substance_smiles: CC(=O)N1[C@@H](CO)[C@@H]2c3ccccc3N(C(=O)c3ccc(F)cc3)C[C@@H]21
study_target: L. donovani amastigotes in THP-1 macrophages, DAPI imaging, 72 h
property_measured: AC50
measured_value: > 10 µM (inactive)
--
substance_smiles: COc1cccc(NC(=O)N2[C@H](CO)[C@@H](c3ccccc3)[C@H]2CNCC(C)C)c1
study_target: L. donovani amastigotes in THP-1 macrophages, DAPI imaging, 72 h
property_measured: AC50
measured_value: > 10 µM (inactive)
--
substance_smiles: C[C@@H]1CN([C@H](C)CO)C(=O)CCCn2nncc2CO[C@@H]1CN(C)C(=O)c1cc(-c2ccccc2)on1
study_target: L. donovani amastigotes in THP-1 macrophages, DAPI imaging, 72 h
property_measured: AC50
measured_value: > 10 µM (inactive)
--
substance_smiles: Cc1cccc(S(=O)(=O)N2C[C@H]3[C@@H](c4ccccc42)[C@@H](CO)N3C(=O)c2ccccc2)c1
study_target: L. donovani amastigotes in THP-1 macrophages, DAPI imaging, 72 h
property_measured: AC50
measured_value: > 10 µM (inactive)
--
substance_smiles: COc1ccccc1NC(=O)N1C[C@@H]2[C@H](c3ccccc31)[C@H](CO)N2Cc1ccc2c(c1)OCO2
study_target: L. donovani amastigotes in THP-1 macrophages, DAPI imaging, 72 h
property_measured: AC50
measured_value: > 10 µM (inactive)
--
substance_smiles: CN(C[C@@H]1[C@@H](c2ccccc2)[C@@H](CO)N1Cc1ccccn1)S(C)(=O)=O
study_target: L. donovani amastigotes in THP-1 macrophages, DAPI imaging, 72 h
property_measured: AC50
measured_value: > 10 µM (inactive)
--
substance_smiles: CN(C)CC(=O)N1C[C@H]2[C@@H](c3ccccc31)[C@@H](CO)N2C(=O)c1ccccn1
study_target: L. donovani amastigotes in THP-1 macrophages, DAPI imaging, 72 h
property_measured: AC50
measured_value: > 10 µM (inactive)
--
substance_smiles: C[C@@H]1CN([C@@H](C)CO)C(=O)CCCn2nncc2CO[C@H]1CN(C)C(=O)Nc1ccccc1C(F)(F)F
study_target: L. donovani amastigotes in THP-1 macrophages, DAPI imaging, 72 h
property_measured: AC50
measured_value: > 10 µM (inactive)
--
substance_smiles: O=C(Nc1ccc(F)cc1)N1C[C@H]2[C@@H](c3ccccc31)[C@@H](CO)N2C(=O)c1ccncc1
study_target: L. donovani amastigotes in THP-1 macrophages, DAPI imaging, 72 h
property_measured: AC50
measured_value: > 10 µM (inactive)
--
substance_smiles: O=C(CN1CCOCC1)N1[C@H](CO)[C@H]2c3ccccc3NC[C@H]21
study_target: L. donovani amastigotes in THP-1 macrophages, DAPI imaging, 72 h
property_measured: AC50
measured_value: > 10 µM (inactive)
--
substance_smiles: COCCN(C[C@H]1[C@H](c2ccccc2)[C@@H](CO)N1C(=O)C1CC1)C(C)=O
study_target: L. donovani amastigotes in THP-1 macrophages, DAPI imaging, 72 h
property_measured: AC50
measured_value: > 10 µM (inactive)
--
substance_smiles: Cc1noc(C)c1S(=O)(=O)N(C)C[C@H]1OCc2cnnn2CCCC(=O)N([C@H](C)CO)C[C@H]1C
study_target: L. donovani amastigotes in THP-1 macrophages, DAPI imaging, 72 h
property_measured: AC50
measured_value: > 10 µM (inactive)
--
substance_smiles: COc1ccc(NC(=O)N(C)C[C@H]2OCc3cnnn3CCCC(=O)N([C@@H](C)CO)C[C@H]2C)c(OC)c1
study_target: L. donovani amastigotes in THP-1 macrophages, DAPI imaging, 72 h
property_measured: AC50
measured_value: > 10 µM (inactive)
--
substance_smiles: C[C@@H]1CN([C@H](C)CO)C(=O)CCCn2cc(nn2)CO[C@H]1CN(C)Cc1ccccc1
study_target: L. donovani amastigotes in THP-1 macrophages, DAPI imaging, 72 h
property_measured: AC50
measured_value: > 10 µM (inactive)
